System: bovine brain endothelial cells
Procedure text: Transport across the BBB, in vitro bovine cell assay (co-culture, transwell)
Experimental setup: bovine cell model, 2 h, 37 °C, Ringer-HEPES pH 7.4; 200 µM (Example 21: 1.75 µM)
Positions of bridges follow the written chain, without caps; N, C: chain ends. Non-standard residues stand in square brackets, D forms with d. Residues, ends and D or L forms follow the SMILES beside them. Dopa = N[C@@H](Cc1ccc(O)c(O)c1)C(=O)O; Dap = NC[C@H](N)C(=O)O

Molecule	Transport (%) (2h)
CC(C)C[C@@H]1NC(=O)[C@H](C)NC(=O)[C@H]([C@@H](C)O)NC(=O)[C@H](CCC(=O)O)NC(=O)[C@@H]2CCCN2C(=O)[C@H](C)NC(=O)[C@H](CCCCN)NC(=O)[C@@H](N)CNC(=O)C[C@@H](C(N)=O)NC1=O [Example 3] (H-[Dap]KAPETALD-NH2; lactam 1-9)	6.0±0.7%
CC(C)C[C@@H]1NC(=O)[C@H](C)NC(=O)[C@H]([C@@H](C)O)NC(=O)[C@H](CCC(=O)O)NC(=O)[C@@H]2CCCN2C(=O)[C@H](C)NC(=O)[C@H](CCCCN)NC(=O)[C@@H]2CSSC[C@@H](C(=O)N[C@@H](Cc3c[nH]cn3)C(N)=O)NC(=O)[C@H](C)NC(=O)[C@H](C)NC(=O)[C@H](C)NC(=O)[C@H](CSSC[C@H](NC(=O)[C@@H](N)Cc3ccc(O)c(O)c3)C(=O)N[C@@H](CC(N)=O)C(=O)N2)NC1=O [Example 16] (H-[Dopa]CNCKAPETALCAAACH-NH2; disulfide 2-12, 4-16)	3.1±0.3%
CC(C)C[C@@H]1NC(=O)[C@H](C)NC(=O)[C@H]([C@@H](C)O)NC(=O)[C@H](CCC(=O)O)NC(=O)[C@@H]2CCCN2C(=O)[C@H](C)NC(=O)[C@H](CCCCN)NC(=O)[C@@H](NC(=O)[C@@H](N)Cc2ccc(O)c(O)c2)CSSC[C@@H](C(N)=O)NC1=O [Example 17] (H-[Dopa]CKAPETALC-NH2; disulfide 2-10)	2.9%

Entry source: patent EP3016671B1
